src = paper PMC8119466

Target: recombinant PRL-3 (Homo sapiens, UniProt O75365)
Construct: 6xHis (N, cleaved yes); made in house; host or cells: E. coli One Shot BL21 Star
Sequence (O75365 whole entry): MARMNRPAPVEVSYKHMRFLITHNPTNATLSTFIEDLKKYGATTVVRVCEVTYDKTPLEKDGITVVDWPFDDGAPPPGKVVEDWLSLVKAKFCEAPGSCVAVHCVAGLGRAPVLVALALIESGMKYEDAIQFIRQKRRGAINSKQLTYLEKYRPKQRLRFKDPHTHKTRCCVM
Assay: In vitro phosphatase assay (DiFMUP hydrolysis), PRL-3; note: test concentration or dose not given here
Type: biochemical
Conditions: FDA-approved drug screen; compared to DMSO
Structures can show the parent of a compound that is named as a salt.
property_label: % Phosphatase Activity (compared to DMSO) PRL-3 (%)
Write it as a number; the unit % goes unstated.

# get_value(readout= % Phosphatase Activity (compared to DMSO) PRL-3, system= recombinant PRL-3 (Homo sapiens, UniProt O75365)) for CCOc1ccc(NC(=O)CC(C)O)cc1 (centres unmarked)
92

# get_value(readout= % Phosphatase Activity (compared to DMSO) PRL-3, system= recombinant PRL-3 (Homo sapiens, UniProt O75365)) for CCCCCCCC(=O)N[C@H](CN1CCCC1)[C@H](O)c1ccc2c(c1)OCCO2.O=C(O)C(O)C(O)C(=O)O [Eliglustat Tartrate]
96

# get_value(readout= % Phosphatase Activity (compared to DMSO) PRL-3, system= recombinant PRL-3 (Homo sapiens, UniProt O75365)) for CN(C)C(=N)N=C(N)N [Metformin HCl]
87

# get_value(readout= % Phosphatase Activity (compared to DMSO) PRL-3, system= recombinant PRL-3 (Homo sapiens, UniProt O75365)) for `CC[C@H](C)C(=O)O[C@H]1C[C@@H](C)C=C2C=C[C@H](C)[C@H](CC[C@@H]3C[C@@H](O)CC(=O)O3)[C@H]21`
87

# get_value(readout= % Phosphatase Activity (compared to DMSO) PRL-3, system= recombinant PRL-3 (Homo sapiens, UniProt O75365)) for CC(C)(C)NCC(O)COc1cccc2c1CCC(=O)N2 (centres unmarked) [Carteolol HCl]
71

###

Target: recombinant PRL-3 (Homo sapiens)
Construct: 6xHis (N, cleaved yes); made in house; host or cells: E. coli One Shot BL21 Star
Assay: In vitro phosphatase assay (DiFMUP hydrolysis), PRL-3; note: test concentration or dose not given here
Assay type: biochemical
Conditions: FDA-approved drug screen; compared to DMSO
property_label: % Phosphatase Activity (compared to DMSO) PRL-3 (%)
Write it as a number; the unit % goes unstated.

What value of measured % Phosphatase Activity (compared to DMSO) PRL-3 is listed for CC(=O)O[C@]1(C(C)=O)CC[C@H]2[C@@H]3C=C(Cl)C4=CC(=O)CC[C@]4(C)[C@H]3CC[C@@]21C [Chlormadinone acetate] ?
81

What value of measured % Phosphatase Activity (compared to DMSO) PRL-3 is listed for `Cc1nc2n(c(=O)c1CCN1CCC(c3noc4cc(F)ccc34)CC1)CCCC2` ?
88

What value of measured % Phosphatase Activity (compared to DMSO) PRL-3 is listed for `O=C(O)c1cc(-c2ccccc2)nc2ccccc12` ?
79

What value of measured % Phosphatase Activity (compared to DMSO) PRL-3 is listed for CCC1(C)CC(=O)NC(=O)C1 [Bemegride] ?
81

What value of measured % Phosphatase Activity (compared to DMSO) PRL-3 is listed for `CC(C)N(CCNC(=O)CN1CCCC1=O)C(C)C` ?
88

What value of measured % Phosphatase Activity (compared to DMSO) PRL-3 is listed for COc1ccc2[n-]c([S@@+]([O-])Cc3ncc(C)c(OC)c3C)nc2c1.[Na+] [Esomeprazole Sodium] ?
92

What value of measured % Phosphatase Activity (compared to DMSO) PRL-3 is listed for Cl.N=C(N)N [Guanidine HCl] ?
86

What value of measured % Phosphatase Activity (compared to DMSO) PRL-3 is listed for CCCCCCCCCCCCCCCC[N+](C)(C)C.[Br-] [Cetrimonium Bromide (CTAB)] ?
92

What value of measured % Phosphatase Activity (compared to DMSO) PRL-3 is listed for CC(=O)O[C@H]1C[C@@H]2CC[C@@H]3[C@H](CC[C@@]4(C)[C@H]3C[C@H]([N+]3(C)CCCCC3)[C@@H]4OC(C)=O)[C@@]2(C)C[C@@H]1[N+]1(C)CCCCC1.[Br-].[Br-] [Pancuronium dibromide] ?
85

###

Target: recombinant PRL-3 (Homo sapiens, UniProt O75365)
Construct: 6xHis (N, cleaved yes); made in house; host or cells: E. coli One Shot BL21 Star
Test: In vitro phosphatase assay (DiFMUP hydrolysis), PRL-3; note: test concentration or dose not given here
Assay type: biochemical
Conditions: FDA-approved drug screen; compared to DMSO
property_label: % Phosphatase Activity (compared to DMSO) PRL-3 (%)
Write it as a number; the unit % goes unstated.

What value of measured % Phosphatase Activity (compared to DMSO) PRL-3 is listed for Nc1ncn([C@H]2C[C@H](O)[C@@H](CO)O2)c(=O)n1 [Decitabine] ?
81

What value of measured % Phosphatase Activity (compared to DMSO) PRL-3 is listed for O=[N+]([O-])c1ccc(O)c2ncccc12 [Nitroxoline] ?
49

What value of measured % Phosphatase Activity (compared to DMSO) PRL-3 is listed for CO[C@H]1/C=C/O[C@@]2(C)Oc3c(C)c(O)c4c(O)c(c5c(nc6cc(C)ccn65)c4c3C2=O)NC(=O)/C(C)=C\C=C\[C@H](C)[C@H](O)[C@@H](C)[C@@H](O)[C@@H](C)[C@H](OC(C)=O)[C@@H]1C [Rifaximin] ?
79

What value of measured % Phosphatase Activity (compared to DMSO) PRL-3 is listed for C[N+](C)(C)CCCCCC[N+](C)(C)C [Hexamethonium Bromide] ?
84

What value of measured % Phosphatase Activity (compared to DMSO) PRL-3 is listed for COc1cc([C@@H]2c3cc4c(cc3[C@@H](O[C@@H]3O[C@@H]5CO[C@@H](C)O[C@H]5[C@H](O)[C@H]3O)[C@H]3COC(=O)[C@H]23)OCO4)cc(OC)c1O [Etoposide] ?
70

What value of measured % Phosphatase Activity (compared to DMSO) PRL-3 is listed for CCc1cccc2c3c([nH]c12)C(CC)(CC(=O)O)OCC3 (centres unmarked) [Etodolac] ?
72

What value of measured % Phosphatase Activity (compared to DMSO) PRL-3 is listed for COc1ccc2cc(CCC(C)=O)ccc2c1 [Nabumetone] ?
68

What value of measured % Phosphatase Activity (compared to DMSO) PRL-3 is listed for CC(C)Cn1cnc2c(N)nc3ccccc3c21 [Imiquimod] ?
67

###

Target: recombinant PRL-3 (Homo sapiens)
Construct: 6xHis (N, cleaved yes); made in house; host or cells: E. coli One Shot BL21 Star
Experiment: In vitro phosphatase assay (DiFMUP hydrolysis), PRL-3; note: test concentration or dose not given here
Format: biochemical
Details: FDA-approved drug screen; compared to DMSO
Structures can show the parent of a compound that is named as a salt.
property_label: % Phosphatase Activity (compared to DMSO) PRL-3 (%)
Write it as a number; the unit % goes unstated.

# get_value(readout= % Phosphatase Activity (compared to DMSO) PRL-3, system= recombinant PRL-3 (Homo sapiens)) for CC(C)OC(=O)C(C)(C)Oc1ccc(C(=O)c2ccc(Cl)cc2)cc1 [Fenofibrate]
101

# get_value(readout= % Phosphatase Activity (compared to DMSO) PRL-3, system= recombinant PRL-3 (Homo sapiens)) for `CCN(CC)C(=O)c1cccc(C)c1`
85

# get_value(readout= % Phosphatase Activity (compared to DMSO) PRL-3, system= recombinant PRL-3 (Homo sapiens)) for `NCCCNCCSP(=O)(O)O`
114

# get_value(readout= % Phosphatase Activity (compared to DMSO) PRL-3, system= recombinant PRL-3 (Homo sapiens)) for CCN[C@H]1CN(CCCOC)S(=O)(=O)c2sc(S(N)(=O)=O)cc21 [Brinzolamide]
81

# get_value(readout= % Phosphatase Activity (compared to DMSO) PRL-3, system= recombinant PRL-3 (Homo sapiens)) for `N#CC[C@H](C1CCCC1)n1cc(-c2ncnc3[nH]ccc23)cn1`
66

# get_value(readout= % Phosphatase Activity (compared to DMSO) PRL-3, system= recombinant PRL-3 (Homo sapiens)) for CCCCCCCCOc1ccccc1C(=O)Nc1ccc(C(=O)OCC[N+](C)(CC)CC)cc1 [Otilonium Bromide]
111

# get_value(readout= % Phosphatase Activity (compared to DMSO) PRL-3, system= recombinant PRL-3 (Homo sapiens)) for CCOC(=O)OC(C)OC1=C(C(=O)Nc2ccccn2)N(C)S(=O)(=O)c2ccccc21 (stereo not shown)
88

# get_value(readout= % Phosphatase Activity (compared to DMSO) PRL-3, system= recombinant PRL-3 (Homo sapiens)) for C[C@@H](NCCCc1cccc(C(F)(F)F)c1)c1cccc2ccccc12 [Cinacalcet HCl]
81

# get_value(readout= % Phosphatase Activity (compared to DMSO) PRL-3, system= recombinant PRL-3 (Homo sapiens)) for CCN1CCC[C@H]1CNC(=O)c1cc(S(N)(=O)=O)ccc1OC [Levosulpiride]
84

# get_value(readout= % Phosphatase Activity (compared to DMSO) PRL-3, system= recombinant PRL-3 (Homo sapiens)) for `CC[C@H](Nc1ncnc2[nH]cnc12)c1nc2cccc(F)c2c(=O)n1-c1ccccc1`
77

# get_value(readout= % Phosphatase Activity (compared to DMSO) PRL-3, system= recombinant PRL-3 (Homo sapiens)) for CCC(C)n1ncn(-c2ccc(N3CCN(c4ccc(OCC5COC(Cn6cncn6)(c6ccc(Cl)cc6Cl)O5)cc4)CC3)cc2)c1=O (stereo not shown)
74

# get_value(readout= % Phosphatase Activity (compared to DMSO) PRL-3, system= recombinant PRL-3 (Homo sapiens)) for `CCn1cc(C(=O)O)c(=O)c2cc(F)c(N3CCNCC3)cc21`
111

# get_value(readout= % Phosphatase Activity (compared to DMSO) PRL-3, system= recombinant PRL-3 (Homo sapiens)) for CN(C)CCOC(c1ccccc1)c1ccccc1 [Diphenhydramine HCl]
111

# get_value(readout= % Phosphatase Activity (compared to DMSO) PRL-3, system= recombinant PRL-3 (Homo sapiens)) for CCN(CC)CC#CCOC(=O)C(O)(c1ccccc1)C1CCCCC1 (stereo not shown) [Oxybutynin chloride]
75

# get_value(readout= % Phosphatase Activity (compared to DMSO) PRL-3, system= recombinant PRL-3 (Homo sapiens)) for `CC[C@H]1OC(=O)[C@H](C)[C@@H](O[C@H]2C[C@@](C)(OC)[C@@H](O)[C@H](C)O2)[C@H](C)[C@@H](O[C@@H]2O[C@H](C)C[C@H](N(C)C)[C@H]2O)[C@](C)(O)C[C@@H](C)C(=O)[C@H](C)[C@@H](O)[C@]1(C)O`
79

# get_value(readout= % Phosphatase Activity (compared to DMSO) PRL-3, system= recombinant PRL-3 (Homo sapiens)) for C[C@@H](O)[C@H]1C(=O)N2C(C(=O)[O-])=C(SC3Cn4cnc[n+]4C3)[C@H](C)[C@H]12 (stereo partly shown)
93
